# tested on: Nonstructural protein 3 (Zika virus)
# method notes: Functional biochemical assay to identify treatments for viral infectious disease that targets Zika NS2B-NS3 protease. Utilizing a direct enzyme activity measurement method, reading the fluorescence intensity is used to characterize the relative potency of inhibitors as IC50.
# Design: species or system PRVABC59
pIC50: −log10 of the molar value.
test readout: pIC50

Example cases with answers are listed next.
C=CC[C@H]1NCc2cc(NC(=O)c3cccc4c3CC(=O)N4)ccc21    5.94
CCn1c(=O)c(N2CC[C@H](CO)C2)nc2cc(C(=O)O)ccc21    < 4.00
CCn1c(=O)c(N2CC[C@H](CO)C2)nc2cc(C(=O)NS(C)(=O)=O)ccc21    < 4.00
CC(C)(C)OC(=O)Nc1cccc2[nH]cc(CN3CCC(c4cscn4)CC3)c12    < 4.00
Cc1n[nH]c2cc(C(=O)N3CCC(C)(NC(=O)[C@H]4C[C@H](N(C)C)C4)CC3)ccc12    < 4.00

pIC50 in this record for "Cc1c(C(=O)Nc2cccc(CN3CCCC3=O)c2)cc(C2CC2)n1C" : < 4.60

###

# tested on: Nonstructural protein 3 (Zika virus)
# method notes: Functional biochemical assay to identify treatments for viral infectious disease that targets Zika NS2B-NS3 protease. Utilizing a direct enzyme activity measurement method, reading the fluorescence intensity is used to characterize the relative potency of inhibitors as IC50.
# Parameters: species or system PRVABC59
pIC50: −log10 of the molar value.
test readout: pIC50

// pIC50 lookup, molecule = "C[C@H]1CN(C)C[C@@H](C(=O)Nc2cccc(CN)c2)O1" , result: < 4.00

###

Quick reference for IC50 among some compounds
# tested on: UniProt A0A024AXB9
# method notes: Functional biochemical assay to identify treatments for viral infectious disease that targets Zika NS2B-NS3 protease. Utilizing a direct enzyme activity measurement method, reading the fluorescence intensity is used to characterize the relative potency of inhibitors as IC50.
# Design: species or system PRVABC59

Check out these entries, answers already filled in.
O[C@@H]1CN(Cc2c[nH]c3ccccc23)C[C@H]1c1c[nH]c2ccccc12    > 99.5 µM
O=C1Cc2c(cccc2C(=O)Nc2ccnn2Cc2ccncc2)N1    > 25 µM
CCn1c(=O)c(N2CC[C@H](CO)C2)nc2ccc(C(=O)NCc3ccccc3)cc21    > 99.5 µM

IC50 reported for this compound "Cc1c(C(=O)Nc2cc(C(=O)N[C@H]3CCNC3=O)ccn2)cc(C2CC2)n1C" : > 25 µM

Value of measured IC50 for the entry "O=C(Nc1cc(-c2cccnc2)ccn1)c1cnc(C2CC2)s1" : > 25 µM

In plain terms, "CS(=O)(=O)Nc1c(Cl)cc(Cl)cc1C(=O)Nc1cccc(CN)c1" has a documented IC50 of > 99.5 µM

Measured IC50, "CNc1ncc(C(F)(F)F)cc1-c1ccc2[nH]c(C(=O)O)cc2c1" : > 99.5 µM

###

# tested on: Nonstructural protein 3 (Zika virus, UniProt A0A024AXB9)
# Sequence (A0A024AXB9 whole entry): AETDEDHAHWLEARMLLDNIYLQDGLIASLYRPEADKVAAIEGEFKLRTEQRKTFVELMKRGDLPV
# method notes: Functional biochemical assay to identify treatments for viral infectious disease that targets Zika NS2B-NS3 protease. Utilizing a direct enzyme activity measurement method, reading the fluorescence intensity is used to characterize the relative potency of inhibitors as IC50.
# Design: species or system PRVABC59
test readout: IC50

CCOc1cc(COc2cccnc2F)nc(N2CCNCC2)n1    > 99.5 µM
CC(C)NC(=O)[C@H](Nc1ccc2c(c1)CNC2)c1cc(F)cc2[nH]ccc12    1.03 µM
CC(C)(C)OC(=O)NCc1cccc(NC(=O)c2cc(N)cc(Cl)c2)c1    > 99.5 µM
NCc1cccc(NC(=O)c2cc(OCc3ccccc3)ccc2CNC(=O)OCc2ccccc2)c1    21.1 µM
CC(C)Oc1cc(COc2cccnc2F)nc(N2CCNCC2)n1    > 99.5 µM

So, "CCCNC(=O)Cn1ccnc(N2CC[C@H](CO)C2)c1=O" ? Its IC50 was > 99.5 µM

# IC50 (compound: "O=C(Nc1ccc2c(c1)S(=O)(=O)NC2)c1cc(Cl)cc2[nH]ncc12" ) is > 25 µM

Value of measured IC50 for the entry "C#C[C@H](Nc1cc([C@H]2CCOC2)ccn1)c1cc(C2CC2)n(C)n1" : > 25 µM

Note to self: IC50 recorded for "O=C(O)c1cc(Cl)ccc1NS(=O)(=O)c1ccc(-c2ccc(F)cc2)cc1" was 32.9 µM

Documented IC50 of "O=C(O)c1nn(-c2ccccc2)cc1Cc1c[nH]c2ccc(Cl)cc12" : > 99.5 µM
